# targetOrTestSystem: ΔF508-CFTR (Homo sapiens, UniProt P13569, DEL508-508)
# Construct: host or cells: CFBE41o-, doxycycline-inducible
# Sequence (P13569 with tags, fused parts or gaps DEL508-508): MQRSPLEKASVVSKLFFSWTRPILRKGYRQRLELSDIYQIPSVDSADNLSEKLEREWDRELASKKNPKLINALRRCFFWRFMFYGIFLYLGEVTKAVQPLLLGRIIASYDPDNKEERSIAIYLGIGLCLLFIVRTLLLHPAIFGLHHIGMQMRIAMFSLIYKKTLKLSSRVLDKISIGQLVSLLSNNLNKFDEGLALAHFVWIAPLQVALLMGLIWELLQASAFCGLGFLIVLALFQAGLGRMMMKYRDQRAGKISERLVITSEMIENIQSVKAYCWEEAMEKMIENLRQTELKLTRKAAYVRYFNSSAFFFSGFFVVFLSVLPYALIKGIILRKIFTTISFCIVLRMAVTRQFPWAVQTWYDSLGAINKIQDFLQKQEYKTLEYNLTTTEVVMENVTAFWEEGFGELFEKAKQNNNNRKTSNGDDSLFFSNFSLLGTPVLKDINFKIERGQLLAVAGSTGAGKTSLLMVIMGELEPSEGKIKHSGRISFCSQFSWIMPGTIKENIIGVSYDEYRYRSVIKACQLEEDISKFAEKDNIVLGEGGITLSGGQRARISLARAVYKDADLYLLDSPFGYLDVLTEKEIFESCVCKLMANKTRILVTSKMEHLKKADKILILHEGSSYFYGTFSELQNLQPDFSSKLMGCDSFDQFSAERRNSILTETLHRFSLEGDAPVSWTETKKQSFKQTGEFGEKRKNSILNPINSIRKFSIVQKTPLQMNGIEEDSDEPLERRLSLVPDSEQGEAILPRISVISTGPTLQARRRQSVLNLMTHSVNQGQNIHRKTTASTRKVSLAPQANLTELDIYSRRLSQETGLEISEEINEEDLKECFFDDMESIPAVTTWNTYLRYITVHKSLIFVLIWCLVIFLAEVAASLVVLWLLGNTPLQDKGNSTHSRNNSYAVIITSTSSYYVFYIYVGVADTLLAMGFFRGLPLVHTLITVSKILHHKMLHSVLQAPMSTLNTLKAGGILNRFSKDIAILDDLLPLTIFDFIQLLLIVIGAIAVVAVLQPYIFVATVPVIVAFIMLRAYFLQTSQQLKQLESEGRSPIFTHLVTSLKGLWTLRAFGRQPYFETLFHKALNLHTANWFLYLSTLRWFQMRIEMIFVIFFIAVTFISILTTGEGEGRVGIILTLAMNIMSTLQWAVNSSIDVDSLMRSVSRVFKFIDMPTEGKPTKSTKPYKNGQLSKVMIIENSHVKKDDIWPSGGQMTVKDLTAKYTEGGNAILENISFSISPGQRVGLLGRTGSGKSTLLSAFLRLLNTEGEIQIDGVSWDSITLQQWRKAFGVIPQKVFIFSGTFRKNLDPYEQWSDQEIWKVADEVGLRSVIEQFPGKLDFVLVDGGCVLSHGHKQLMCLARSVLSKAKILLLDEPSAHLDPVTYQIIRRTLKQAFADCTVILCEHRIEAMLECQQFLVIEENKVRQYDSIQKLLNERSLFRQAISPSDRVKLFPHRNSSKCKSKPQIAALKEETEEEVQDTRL
# assayName: CFTR cell surface levels using HRP-tagged ΔF508-CFTR expressing CFBE cells, in the presence of a co-corrector
# Assay type: cell-based
# condition: HRP-tagged ΔF508-CFTR expressing CFBE cells, in the presence of 3 μM co-corrector; read-out: EC50
pEC50: −log10 of the molar value.
Quick rule for you: pEC50 at 6 or higher means Y, lower means N.

Use the examples below as a reference point.
CC(=O)N1CCC2CN(c3cc(C(=O)O)nc4c3c(C(C)C)nn4-c3cccc(C)c3)CCC21 (stereo not drawn) [compound 255] :: Y
CC(C)(C)OC(=O)N1CC(c2nn(-c3ccccc3)c3nc(C(=O)O)cc(-c4ccc(N5CCOCC5)cc4)c23)C1 [compound 47] :: Y
O=C(O)c1cc(N2CCN(C(=O)CN3CCOCC3)CC2)c2c(C3CCC3)nn(-c3ccccc3)c2n1 [compound 570] :: N
O=C(O)c1cc(N2CCC[C@@H](O)C2)c2c(C3CCC3)nn(-c3ccccc3)c2n1 [compound 706] :: Y
N#CC1CN(C2CCN(c3cc(C(=O)O)nc4c3c(C3CCC3)nn4-c3ccc(F)cc3)CC2)CCO1 (stereo not drawn) [compound 851] :: Y

input: Has CC(=O)N1CCN(c2cc(C(=O)O)nc3c2c(C(C)C)nn3-c2ccc(F)cc2)CC1 [compound 771] a recorded pEC50 greater than or equal to 6?
output: N

input: Has Cc1nn(-c2ccccc2)c2nc(C(=O)O)cc(-c3ccc(N4CC5CCC(C4)O5)cc3)c12 [compound 134] a recorded pEC50 greater than or equal to 6?
output: Y

input: Has N#CC1CCCN(C2CCN(c3cc(C(=O)O)nc4c3c(C3CCC3)nn4-c3ccc(F)cc3)CC2)C1 (stereo not drawn) [compound 871] a recorded pEC50 greater than or equal to 6?
output: Y

input: Has CC1CN(c2ccc(-c3cc(C(=O)O)nc4c3c(C(C)C)nn4C3CCCCC3)cn2)CC(C)O1 (stereo not drawn) [compound 196] a recorded pEC50 greater than or equal to 6?
output: Y

input: Has Cc1cccc(-n2nc(C(C)C)c3c(N4CCC5(CC4)CN(C)C(=O)O5)cc(C(=O)O)nc32)c1 [compound 359] a recorded pEC50 greater than or equal to 6?
output: N

input: Has CC(C)c1nn(-c2cccc(N3CCOCC3)c2)c2nc(C(=O)O)cc(-c3cnc(N(C)C4CCOCC4)nc3)c12 [compound 231] a recorded pEC50 greater than or equal to 6?
output: Y

input: Has CCN(CC)CC1(N2CC(Oc3cc(C(=O)O)nc4c3c(C3CCC3)nn4-c3ccccc3)C2)COC1 [compound 646] a recorded pEC50 greater than or equal to 6?
output: N

input: Has CC(C)c1nn(-c2ccc(F)cc2)c2nc(C(=O)O)cc(N3CC(N4CCC(N5CCOCC5)CC4)C3)c12 [compound 759] a recorded pEC50 greater than or equal to 6?
output: N

Just for reference, patent US9796711B2 is where these values come from.
